assay: Selectivity index, ratio of IC50 for cytotoxicity against African green monkey Vero cells to IC50 for antiproliferative activity against human PC-3 cells; format: toxicity, cell-based; conditions: Vero cells versus PC-3 cells, read-out: Ratio IC50
If the reported selectivity ratio equals or exceeds 9, assign TRUE. If not, assign FALSE.

Use these answered entries as a reference point.
- compound: "Clc1ccc(-c2nc(-c3ccc(-c4nc(-c5nnc(-c6ccncc6)o5)c[nH]4)cc3)no2)cc1"
  answerLabel: "FALSE"
- compound: "COc1cc([C@@H]2c3cc4c(cc3[C@@H](O[C@@H]3O[C@@H]5CO[C@@H](C)O[C@H]5[C@H](O)[C@H]3O)[C@H]3COC(=O)[C@H]23)OCO4)cc(OC)c1O [ETOPOSIDE]"
  answerLabel: "TRUE"
- compound: "COc1ccc(-c2nc(-c3ccc(-c4nc(-c5nnc(-c6ccncc6)o5)c[nH]4)cc3)no2)cc1"
  answerLabel: "TRUE"

**Query** For this compound, is measured selectivity ratio 9 or higher? O=[N+]([O-])c1cc(-c2nc(-c3ccc(-c4nc(-c5nnc(-c6ccncc6)o5)c[nH]4)cc3)no2)cc([N+](=O)[O-])c1
**Result** FALSE

**Query** Test whether the compound COc1cc(OC)cc(-c2nc(-c3ccc(-c4nc(-c5nnc(-c6ccncc6)o5)c[nH]4)cc3)no2)c1 records selectivity ratio of 9 or higher.
**Result** TRUE

====

Please go through the items and note down their selectivity ratio.
test: Selectivity index, ratio of IC50 for cytotoxicity against African green monkey Vero cells to IC50 for antiproliferative activity against human PC-3 cells; format: toxicity, cell-based; details: Vero cells versus PC-3 cells, read-out: Ratio IC50
One number for each entry.

Some solved entries appear below for comparison.
- chemSmiles: "COc1cc(-c2nc(-c3ccc(-c4nc(-c5nnc(-c6ccncc6)o5)c[nH]4)cc3)no2)cc(OC)c1OC"
  selectivity ratio: 117
- chemSmiles: "CN(C)c1ccc(-c2nc(-c3ccc(-c4nc(-c5nnc(-c6ccncc6)o5)c[nH]4)cc3)no2)cc1"
  selectivity ratio: 7.3
- chemSmiles: "Brc1ccc(-c2nc(-c3ccc(-c4nc(-c5nnc(-c6ccncc6)o5)c[nH]4)cc3)no2)cc1"
  selectivity ratio: 5.34

Then this compound:
The reported selectivity ratio of the compound Cc1ccc(-c2nc(-c3ccc(-c4nc(-c5nnc(-c6ccncc6)o5)c[nH]4)cc3)no2)cc1 was 8.02

====

molecular target: Epidermal growth factor receptor (Homo sapiens, UniProt P00533)
Sequence (P00533 whole entry): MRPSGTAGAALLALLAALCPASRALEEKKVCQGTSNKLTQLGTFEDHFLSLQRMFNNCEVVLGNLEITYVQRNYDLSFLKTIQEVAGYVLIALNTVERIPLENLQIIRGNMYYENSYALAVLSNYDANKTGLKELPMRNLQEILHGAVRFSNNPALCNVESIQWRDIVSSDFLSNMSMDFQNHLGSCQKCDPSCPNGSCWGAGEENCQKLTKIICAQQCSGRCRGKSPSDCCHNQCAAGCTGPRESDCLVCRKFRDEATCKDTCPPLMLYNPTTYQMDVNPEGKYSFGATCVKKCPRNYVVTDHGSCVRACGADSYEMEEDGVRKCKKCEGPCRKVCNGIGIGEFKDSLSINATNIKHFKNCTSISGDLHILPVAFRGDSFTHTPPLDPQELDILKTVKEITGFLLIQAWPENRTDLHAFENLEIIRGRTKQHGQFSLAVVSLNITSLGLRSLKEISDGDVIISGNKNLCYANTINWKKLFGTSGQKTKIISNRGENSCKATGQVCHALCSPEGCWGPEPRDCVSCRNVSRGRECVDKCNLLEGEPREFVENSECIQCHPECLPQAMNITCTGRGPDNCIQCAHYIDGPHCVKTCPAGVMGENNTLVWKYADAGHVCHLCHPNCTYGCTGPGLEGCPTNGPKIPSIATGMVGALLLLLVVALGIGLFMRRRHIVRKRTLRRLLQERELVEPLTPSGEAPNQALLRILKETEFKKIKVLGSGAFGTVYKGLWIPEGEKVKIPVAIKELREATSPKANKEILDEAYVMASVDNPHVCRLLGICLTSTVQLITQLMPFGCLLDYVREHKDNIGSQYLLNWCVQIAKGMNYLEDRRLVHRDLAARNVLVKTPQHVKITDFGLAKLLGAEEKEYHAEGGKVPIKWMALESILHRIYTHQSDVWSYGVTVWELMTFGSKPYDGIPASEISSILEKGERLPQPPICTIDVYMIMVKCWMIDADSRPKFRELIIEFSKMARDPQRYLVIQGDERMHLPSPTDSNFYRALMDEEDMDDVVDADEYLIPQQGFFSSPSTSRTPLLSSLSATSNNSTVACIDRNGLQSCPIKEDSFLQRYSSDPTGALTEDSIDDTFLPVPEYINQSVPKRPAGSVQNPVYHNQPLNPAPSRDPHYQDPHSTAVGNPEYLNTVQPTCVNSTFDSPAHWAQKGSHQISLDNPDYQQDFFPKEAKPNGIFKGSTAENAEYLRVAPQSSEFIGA
experimentalEndpoint: IC50

# IC50 of COc1cc(-c2nc(-c3ccc(-c4nc(-c5nnc(-c6ccncc6)o5)c[nH]4)cc3)no2)cc(OC)c1OC = 0.102 µM

====

assay: Cytotoxicity against African green monkey Vero cells assessed as reduction in cell viability measured after 48 hrs by MTT assay; type: toxicity, cell-based; conditions: African green monkey (Chlorocebus sabaeus)
Assignment: determine reported IC50 at 48 h for the given molecules.

- chemSmiles: "N#Cc1ccc(-c2nc(-c3ccc(-c4nc(-c5nnc(-c6ccncc6)o5)c[nH]4)cc3)no2)cc1"
  resultValue: "> 23 µM"
- chemSmiles: "O=[N+]([O-])c1ccc(-c2nc(-c3ccc(-c4nc(-c5nnc(-c6ccncc6)o5)c[nH]4)cc3)no2)cc1"
  resultValue: "> 24 µM"
- chemSmiles: "COc1cc(OC)cc(-c2nc(-c3ccc(-c4nc(-c5nnc(-c6ccncc6)o5)c[nH]4)cc3)no2)c1"
  resultValue: "> 15 µM"

Okay, next one:
Sample O=[N+]([O-])c1cc(-c2nc(-c3ccc(-c4nc(-c5nnc(-c6ccncc6)o5)c[nH]4)cc3)no2)cc([N+](=O)[O-])c1 ; IC50 at 48 h observed: > 25 µM

====

experiment: Selectivity index, ratio of IC50 for cytotoxicity against African green monkey Vero cells to IC50 for antiproliferative activity against human A549 cells; type: toxicity, cell-based; conditions: Vero cells versus A549 cells, read-out: Ratio IC50
Tag: True if measured selectivity ratio is not below 8, False if it is.

**Query** Has COc1cc(OC)cc(-c2nc(-c3ccc(-c4nc(-c5nnc(-c6ccncc6)o5)c[nH]4)cc3)no2)c1 a recorded selectivity ratio greater than or equal to 8?
**Result** True

**Query** # bool: selectivity ratio of Cc1ccc(-c2nc(-c3ccc(-c4nc(-c5nnc(-c6ccncc6)o5)c[nH]4)cc3)no2)cc1 >= 8
**Result** False

**Query** Quick check: does N#Cc1ccc(-c2nc(-c3ccc(-c4nc(-c5nnc(-c6ccncc6)o5)c[nH]4)cc3)no2)cc1 have selectivity ratio greater than or equal to 8?
**Result** False

**Query** Can COc1ccc(-c2nc(-c3ccc(-c4nc(-c5nnc(-c6ccncc6)o5)c[nH]4)cc3)no2)cc1 be said to have selectivity ratio at or above 8?
**Result** True

**Query** // inclusive: selectivity ratio at least 8? input: COc1cc(-c2nc(-c3ccc(-c4nc(-c5nnc(-c6ccncc6)o5)c[nH]4)cc3)no2)cc(OC)c1OC
**Result** True

**Query** Quick check: does O=[N+]([O-])c1cc(-c2nc(-c3ccc(-c4nc(-c5nnc(-c6ccncc6)o5)c[nH]4)cc3)no2)cc([N+](=O)[O-])c1 have selectivity ratio greater than or equal to 8?
**Result** False

**Query** Does Brc1ccc(-c2nc(-c3ccc(-c4nc(-c5nnc(-c6ccncc6)o5)c[nH]4)cc3)no2)cc1 have a reported selectivity ratio of at least 8?
**Result** False

**Query** Determine whether this compound has selectivity ratio no lower than 8: Clc1ccc(-c2nc(-c3ccc(-c4nc(-c5nnc(-c6ccncc6)o5)c[nH]4)cc3)no2)cc1
**Result** False

====

assay: Selectivity index, ratio of IC50 for cytotoxicity against African green monkey Vero cells to IC50 for antiproliferative activity against human HepG2 cells; assay type: toxicity, cell-based; details: Vero cells versus HepG2 cells, read-out: Ratio IC50
experimentalEndpoint: selectivity ratio
Numbers only.

The following compounds have reported results that may help.
- chemSmiles: "CN(C)c1ccc(-c2nc(-c3ccc(-c4nc(-c5nnc(-c6ccncc6)o5)c[nH]4)cc3)no2)cc1"
  selectivity ratio: 9.03
- chemSmiles: "COc1cc(OC)cc(-c2nc(-c3ccc(-c4nc(-c5nnc(-c6ccncc6)o5)c[nH]4)cc3)no2)c1"
  selectivity ratio: 54.9
- chemSmiles: "COc1ccc(-c2nc(-c3ccc(-c4nc(-c5nnc(-c6ccncc6)o5)c[nH]4)cc3)no2)cc1"
  selectivity ratio: 12.9

Next:
Summary for this compound, Cc1ccc(-c2nc(-c3ccc(-c4nc(-c5nnc(-c6ccncc6)o5)c[nH]4)cc3)no2)cc1 : selectivity ratio is 7.1

====

test: Selectivity index, ratio of IC50 for cytotoxicity against African green monkey Vero cells to IC50 for antiproliferative activity against human HepG2 cells; assay type: toxicity, cell-based; conditions: Vero cells versus HepG2 cells, read-out: Ratio IC50
experimentalEndpoint: selectivity ratio
Numbers only.

As a guide, the following entries are already answered.
- molecule: "O=[N+]([O-])c1ccc(-c2nc(-c3ccc(-c4nc(-c5nnc(-c6ccncc6)o5)c[nH]4)cc3)no2)cc1"
  selectivity ratio: 4.5
- molecule: "N#Cc1ccc(-c2nc(-c3ccc(-c4nc(-c5nnc(-c6ccncc6)o5)c[nH]4)cc3)no2)cc1"
  selectivity ratio: 3.29
- molecule: "COc1cc(-c2nc(-c3ccc(-c4nc(-c5nnc(-c6ccncc6)o5)c[nH]4)cc3)no2)cc(OC)c1OC"
  selectivity ratio: 127
- molecule: "O=[N+]([O-])c1cc(-c2nc(-c3ccc(-c4nc(-c5nnc(-c6ccncc6)o5)c[nH]4)cc3)no2)cc([N+](=O)[O-])c1"
  selectivity ratio: 6.92

Parameter requested: selectivity ratio. Apply to each item below.
1. Brc1ccc(-c2nc(-c3ccc(-c4nc(-c5nnc(-c6ccncc6)o5)c[nH]4)cc3)no2)cc1
2. COc1cc([C@@H]2c3cc4c(cc3[C@@H](O[C@@H]3O[C@@H]5CO[C@@H](C)O[C@H]5[C@H](O)[C@H]3O)[C@H]3COC(=O)[C@H]23)OCO4)cc(OC)c1O [ETOPOSIDE]
3. Clc1ccc(-c2nc(-c3ccc(-c4nc(-c5nnc(-c6ccncc6)o5)c[nH]4)cc3)no2)cc1

**Result**
5.31
11.8
4.32

====

Please go through the items and note down their selectivity ratio.
experiment: Selectivity index, ratio of IC50 for cytotoxicity against African green monkey Vero cells to IC50 for antiproliferative activity against human DU-145 cells; type: toxicity, cell-based; details: Vero cells versus DU-145 cells, read-out: Ratio IC50
Give bare numbers.

Take a look at these entries with their results.
- compound: "COc1cc([C@@H]2c3cc4c(cc3[C@@H](O[C@@H]3O[C@@H]5CO[C@@H](C)O[C@H]5[C@H](O)[C@H]3O)[C@H]3COC(=O)[C@H]23)OCO4)cc(OC)c1O [ETOPOSIDE]"
  selectivity ratio: 12.7
- compound: "O=[N+]([O-])c1ccc(-c2nc(-c3ccc(-c4nc(-c5nnc(-c6ccncc6)o5)c[nH]4)cc3)no2)cc1"
  selectivity ratio: 6.29
- compound: "COc1cc(-c2nc(-c3ccc(-c4nc(-c5nnc(-c6ccncc6)o5)c[nH]4)cc3)no2)cc(OC)c1OC"
  selectivity ratio: 32.5
- compound: "Cc1ccc(-c2nc(-c3ccc(-c4nc(-c5nnc(-c6ccncc6)o5)c[nH]4)cc3)no2)cc1"
  selectivity ratio: 6.41
- compound: "COc1cc(OC)cc(-c2nc(-c3ccc(-c4nc(-c5nnc(-c6ccncc6)o5)c[nH]4)cc3)no2)c1"
  selectivity ratio: 17

Report selectivity ratio for every entry below.
1. CN(C)c1ccc(-c2nc(-c3ccc(-c4nc(-c5nnc(-c6ccncc6)o5)c[nH]4)cc3)no2)cc1
2. COc1ccc(-c2nc(-c3ccc(-c4nc(-c5nnc(-c6ccncc6)o5)c[nH]4)cc3)no2)cc1
3. Brc1ccc(-c2nc(-c3ccc(-c4nc(-c5nnc(-c6ccncc6)o5)c[nH]4)cc3)no2)cc1

**Result**
1: 6.42; 2: 9.2; 3: 4.7
